# subject of test: CDK4-CYCLIN D1 (Homo sapiens, UniProt P11802)
# Sequence (P11802 whole entry): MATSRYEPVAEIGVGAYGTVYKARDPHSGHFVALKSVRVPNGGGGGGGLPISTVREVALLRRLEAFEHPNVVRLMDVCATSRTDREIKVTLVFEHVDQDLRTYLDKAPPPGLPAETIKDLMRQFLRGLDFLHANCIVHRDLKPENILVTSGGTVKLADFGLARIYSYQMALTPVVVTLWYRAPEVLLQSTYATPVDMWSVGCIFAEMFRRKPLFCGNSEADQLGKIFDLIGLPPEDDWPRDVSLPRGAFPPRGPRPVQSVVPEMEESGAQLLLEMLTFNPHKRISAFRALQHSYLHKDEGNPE
# Sequence (P24385 whole entry partner): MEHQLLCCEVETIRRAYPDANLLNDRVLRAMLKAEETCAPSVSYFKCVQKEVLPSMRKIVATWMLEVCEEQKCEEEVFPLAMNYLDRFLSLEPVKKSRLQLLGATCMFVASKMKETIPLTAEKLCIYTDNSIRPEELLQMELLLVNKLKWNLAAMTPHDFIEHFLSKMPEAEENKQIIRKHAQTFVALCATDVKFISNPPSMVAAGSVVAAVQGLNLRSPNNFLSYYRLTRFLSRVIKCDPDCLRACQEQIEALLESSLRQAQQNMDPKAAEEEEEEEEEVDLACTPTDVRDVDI
# protocol description: CDK protein kinase inhibition by ADP-Glo assay, CDK4-CYCLIN D1
# Assay type: biochemical
# experimental context: ADP-Glo, 1000 μM ATP; Table 7; read-out: CDK4-CYCLIND1, IC50
# Method: CDK Protein Kinase Inhibition by ADP-Glo Assay This ADP-Glo assay measures ADP formed from a kinase reaction and indirectly quantifies the phosphorylation of peptide substrates by the CDK/cyclin protein complexes. […] At the end of the incubation, the reaction is quenched, and conversion is detected by luminescence using the Promega ADP-Glo™ Kinase Assay kit (catalog #V9102). […]
Please go through the items and note down their IC50.

Sample records with IC50:
smi | subject of test | parameter | result
CC1(C)CCCOc2cc(ccn2)Nc2cc([nH]n2)[C@H]2CC[C@H](C2)OC(=O)N1 | CDK4-CYCLIN D1 (Homo sapiens, UniProt P11802) | IC50 | 50 to 100 nM
O=C1NCCCCCc2cc(ccn2)Nc2cc([nH]n2)[C@H]2CC[C@H](C2)O1 | CDK4-CYCLIN D1 (Homo sapiens, UniProt P11802) | IC50 | 50 to 100 nM
C[C@H]1CCCOc2cc(ccn2)Nc2cc([nH]n2)[C@H]2CC[C@H](C2)OC(=O)N1 | CDK4-CYCLIN D1 (Homo sapiens, UniProt P11802) | IC50 | > 500 nM

State the recorded IC50 for every item in the following list.
1. O=C1NCCCCOc2cncc(c2)Nc2cc(n[nH]2)[C@H]2CC[C@H](C2)O1
2. O=C1NCCCCOc2cccc(c2)Nc2cc([nH]n2)[C@H]2CC[C@H](C2)O1
3. C[C@@H]1CCCOc2cc(ccn2)Nc2cc([nH]n2)[C@H]2CC[C@H](C2)OC(=O)N1

RESULT:
50 to 100 nM
100 to 500 nM
100 to 500 nM

State the recorded IC50 for every item in the following list.
1. O=C1NCCCCCc2cc(cc(C(F)F)n2)Nc2cc([nH]n2)[C@H]2CC[C@H](C2)O1
2. O=C1NCCCCOc2cc(cc(C(F)F)n2)Nc2cc([nH]n2)[C@H]2CC[C@H](C2)O1

RESULT:
1. 100 to 500 nM
2. > 500 nM

====

# subject of test: CDK6-CYCLIN D3 (Homo sapiens)
# protocol description: CDK protein kinase inhibition by ADP-Glo assay, CDK6-CYCLIN D3
# Type: biochemical
# experimental context: ADP-Glo, 1000 μM ATP; Table 23; read-out: CDK6-CYCLIND3, IC50
pIC50: −log10 of the molar value.
parameter: pIC50

Sample records with pIC50:
smi | parameter | result
C[C@H]1CCO[C@H](C)c2cc(ccn2)Nc2cc(n[nH]2)[C@H]2CC[C@H](C2)OC(=O)N1 | pIC50 | < 6.30
C[C@@H]1Oc2cncc(c2)Nc2cc(n[nH]2)[C@H]2CC[C@H](C2)OC(=O)N[C@H]2C[C@@H]1C2 | pIC50 | < 6.30
C[C@@H]1OCC[C@H](C)NC(=O)O[C@@H]2CC[C@@H](C2)c2cc([nH]n2)Nc2ccnc1c2 | pIC50 | 7.00 to 7.30

Next, consider the following molecule.
Summary for this molecule, C[C@@H]1CC[C@H](C)Oc2cc(ccn2)Nc2cc(n[nH]2)[C@H]2CC[C@H](C2)OC(=O)N1 : pIC50 is 6.30 to 7.00

====

# subject of test: CDK6-CYCLIN D3 (Homo sapiens, UniProt Q00534)
# Sequence (Q00534 whole entry): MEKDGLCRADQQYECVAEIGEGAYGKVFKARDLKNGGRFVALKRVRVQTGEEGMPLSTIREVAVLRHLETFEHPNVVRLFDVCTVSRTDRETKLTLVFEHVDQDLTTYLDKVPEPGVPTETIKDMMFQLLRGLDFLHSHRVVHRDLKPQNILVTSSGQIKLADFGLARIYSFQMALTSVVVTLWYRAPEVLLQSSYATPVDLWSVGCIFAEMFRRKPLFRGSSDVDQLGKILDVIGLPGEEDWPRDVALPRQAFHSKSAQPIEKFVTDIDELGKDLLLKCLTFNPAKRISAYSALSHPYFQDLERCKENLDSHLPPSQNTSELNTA
# Sequence (P30281 whole entry partner): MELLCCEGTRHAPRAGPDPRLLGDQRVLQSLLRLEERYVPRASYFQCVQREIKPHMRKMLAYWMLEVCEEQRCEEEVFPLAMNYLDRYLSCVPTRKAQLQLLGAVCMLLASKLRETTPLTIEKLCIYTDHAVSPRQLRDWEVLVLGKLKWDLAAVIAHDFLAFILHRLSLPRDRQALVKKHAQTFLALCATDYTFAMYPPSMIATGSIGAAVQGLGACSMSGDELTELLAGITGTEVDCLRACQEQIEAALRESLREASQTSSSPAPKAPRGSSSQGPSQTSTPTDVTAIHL
# protocol description: CDK protein kinase inhibition by ADP-Glo assay, CDK6-CYCLIN D3
# Assay type: biochemical
# experimental context: ADP-Glo, 1000 μM ATP; Table 33; read-out: CDK6-CYCLIND3, IC50
pIC50: −log10 of the molar value.
parameter: pIC50

Summary for this molecule, C[C@H]1CCCOc2cc(ccn2)Nc2[nH]nc(c2F)[C@H]2CC[C@H](C2)OC(=O)N1 : pIC50 is < 6.30

====

# subject of test: CDK6-CYCLIN D3 (Homo sapiens, UniProt Q00534)
# protocol description: CDK protein kinase inhibition by ADP-Glo assay, CDK6-CYCLIN D3
# Type: biochemical
# experimental context: Table 36; fold selectivity for CDK2 over CDK6, recombinant CDK kinases
parameter: CDK2 Fold selectivity against CDK6

Sample records with CDK2 Fold selectivity against CDK6:
smi | result
C[C@H]1CCCOc2cc(ccn2)Nc2cc(n[nH]2)[C@@H]2C[C@H](F)[C@@H](C2)OC(=O)N1 | E (E, <20)
C[C@H]1CCCOc2cc(ccn2)Nc2cc(n[nH]2)[C@H]2C[C@@H](F)[C@H](C2)OC(=O)N1 | C (C, >50 and ≤100)
C[C@H]1CC(F)(F)COc2cc(ccn2)Nc2cc(n[nH]2)[C@H]2CC[C@H](C2)OC(=O)N1 | C (C, >50 and ≤100)
[2H]C1([2H])Oc2cc(ccn2)Nc2[nH]nc(c2F)[C@H]2CC[C@H](C2)OC(=O)N[C@H]2C[C@H]1C2 | C (C, >50 and ≤100)

Next, consider the following molecule.
Here [2H]C1([2H])Oc2cc(ccn2)Nc2cc(n[nH]2)[C@H]2CC[C@H](C2)OC(=O)N[C@H]2C[C@H]1C2 was tested on CDK6-CYCLIN D3 (Homo sapiens, UniProt Q00534), and its CDK2 Fold selectivity against CDK6 came to E (E, <20)

====

# subject of test: CDK4-CYCLIN D1 (Homo sapiens, UniProt P11802)
# protocol description: CDK protein kinase inhibition by ADP-Glo assay, CDK4-CYCLIN D1
# Format: biochemical
# experimental context: CDK2 versus CDK4; Table 18

smi | subject of test | CDK2 Fold selectivity, CDK4
C[C@H]1CC23CC(C2)(C3)NC(=O)O[C@@H]2CC[C@@H](C2)c2cc([nH]n2)Nc2ccnc(c2)O1 | CDK4-CYCLIN D1 (Homo sapiens, UniProt P11802) | C (C, >50 and ≤100)
O=C1NC23CC(C/C=C/c4cc(ccn4)Nc4cc(n[nH]4)[C@H]4CC[C@H](C4)O1)(C2)C3 | CDK4-CYCLIN D1 (Homo sapiens, UniProt P11802) | E (E, <20)
O=C1NC2(CCCCc3cc(ccn3)Nc3cc(n[nH]3)[C@H]3CC[C@H](C3)O1)CC2 | CDK4-CYCLIN D1 (Homo sapiens, UniProt P11802) | E (E, <20)
C[C@@H]1CC23CC(C2)(C3)NC(=O)O[C@@H]2CC[C@@H](C2)c2cc([nH]n2)Nc2ccnc(c2)O1 | CDK4-CYCLIN D1 (Homo sapiens, UniProt P11802) | C (C, >50 and ≤100)

====

# Test system: Phospho-Rb (Ser807/811) in OVCAR3 cells
# protocol description: Phospho-Rb expression inhibition in OVCAR3 cells quantified by In Cell Western
# Type: cell-based
# experimental context: Homo sapiens, OVCAR-3, 24 hours, read-out: OVCAR-3 pRb IC50
pIC50: −log10 of the molar value.
parameter: pIC50

Sample records with pIC50:
compound | pIC50
O=C1NCCCO[C@H](C(F)(F)F)c2cc(ccn2)Nc2cc(n[nH]2)[C@H]2CC[C@H](C2)O1 | 6.60 to 7.30
C[C@@H]1C/C=C\C(F)(F)c2cc(ccn2)Nc2cc(n[nH]2)[C@H]2CC[C@H](C2)OC(=O)N1 | 7.30 to 8.00
C[C@H]1CCCOc2cc(ccn2)Nc2[nH]nc(c2F)C2C[C@@H](F)[C@H](C2)OC(=O)N1 | 7.30 to 8.00
C[C@@H]1CCCCc2cc(ccn2)Nc2cc(n[nH]2)[C@H]2CC[C@H](C2)OC(=O)N1 | 7.30 to 8.00
O=C1NC2CCN(CC2)c2cc(ccn2)Nc2cc(n[nH]2)[C@H]2CC[C@H](C2)O1 | < 6.60
C[C@@H]1CCCNC(=O)O[C@@H]2CC[C@@H](C2)c2cc([nH]n2)Nc2cncc(c2)O1 | 7.30 to 8.00

State the recorded pIC50 for every item in the following list.
1. C[C@H]1Oc2cc(ccn2)Nc2cc(n[nH]2)[C@H]2CC[C@H](C2)OC(=O)N[C@H]2C[C@H]1C2
2. C[C@@H]1NC(=O)O[C@@H]2CC[C@@H](C2)c2cc([nH]n2)Nc2cnnc(c2)OCCC1(F)F
3. C[C@H]1C/C=C\C(F)(F)c2cc(ccn2)Nc2cc(n[nH]2)[C@H]2CC[C@H](C2)OC(=O)N1
4. O=C1NC2(CCCCc3cncc(c3)Nc3cc(n[nH]3)[C@H]3CC[C@H](C3)O1)CC2
5. C[C@@H]1Oc2cc(ccn2)Nc2cc(n[nH]2)[C@H]2CC[C@H](C2)OC(=O)N[C@H]2C[C@H]1C2
6. C[C@H]1CCC(C)(C)NC(=O)O[C@@H]2CC[C@@H](C2)c2cc([nH]n2)Nc2cncc(c2)O1
7. [2H]C1([2H])CC(F)(F)[C@H](C)NC(=O)O[C@@H]2CC[C@@H](C2)c2cc([nH]n2)Nc2ccnc(c2)O1

RESULT:
1. 8.00 to 8.70
2. 7.30 to 8.00
3. 8.00 to 8.70
4. 8.00 to 8.70
5. 7.30 to 8.00
6. ≥ 8.70
7. 8.00 to 8.70

State the recorded pIC50 for every item in the following list.
1. C[C@H]1CCCC(F)(F)c2cc(ccn2)Nc2cc(n[nH]2)[C@H]2CC[C@H](C2)OC(=O)N1
2. C[C@@H]1CCC#Cc2cc(ccn2)Nc2cc(n[nH]2)[C@H]2CC[C@H](C2)OC(=O)N1
3. C[C@H]1CCCOc2cc(c(F)cn2)Nc2cc(n[nH]2)[C@H]2CC[C@H](C2)OC(=O)N1

RESULT:
8.00 to 8.70
7.30 to 8.00
6.60 to 7.30

State the recorded pIC50 for every item in the following list.
1. C[C@H]1CCCOc2cncc(n2)Nc2cc(n[nH]2)[C@H]2CC[C@H](C2)OC(=O)N1
2. O=C1NC23CC(CCOc4cc(cc(C(F)F)n4)Nc4cc([nH]n4)[C@H]4CC[C@H](C4)O1)(C2)C3
3. C[C@H]1CCCOc2cc(ccn2)Nc2[nH]nc(c2Cl)[C@H]2CC[C@H](C2)OC(=O)N1
4. C[C@@H]1CCCOc2cc(ccn2)Nc2cc([nH]n2)[C@H]2CC[C@H](C2)OC(=O)N1
5. O=C1NC2CC(COc3cncc(n3)Nc3cc(n[nH]3)[C@H]3CC[C@H](C3)O1)C2
6. C[C@@H]1Oc2cc(ccn2)Nc2cc(n[nH]2)[C@H]2CC[C@H](C2)OC(=O)N[C@H]2C[C@@H]1C2
7. C[C@H]1CCCOc2nccc(n2)Nc2[nH]nc(c2F)[C@H]2CC[C@H](C2)OC(=O)N1

RESULT:
["≥ 8.70", "≥ 8.70", "< 6.60", "7.30 to 8.00", "≥ 8.70", "6.60 to 7.30", "8.00 to 8.70"]

State the recorded pIC50 for every item in the following list.
1. C[C@@H]1NC(=O)O[C@@H]2CC(C[C@@H]2F)c2n[nH]c(c2F)Nc2ccnc(c2)OCCC1(F)F
2. C[C@H]1CCCOc2cncc(c2)Nc2cc(n[nH]2)[C@H]2CC[C@H](C2)OC(=O)N1
3. C[C@H]1CCCOc2cncc(n2)Nc2[nH]nc(c2F)[C@H]2CC[C@H](C2)OC(=O)N1
4. O=C1NC2CC(C2)CC(F)(F)c2cc(ccn2)Nc2cc(n[nH]2)[C@H]2CC[C@H](C2)O1 (single isomer, unassigned)
5. O=C1NC23CC(C/C=C/c4cncc(c4)Nc4cc(n[nH]4)[C@H]4CC[C@H](C4)O1)(C2)C3
6. O=C1NC2CC(COc3cncc(n3)Nc3[nH]nc(c3F)[C@H]3CC[C@H](C3)O1)C2

RESULT:
7.30 to 8.00
8.00 to 8.70
8.00 to 8.70
7.30 to 8.00
≥ 8.70
8.00 to 8.70
